Measured pKd of individual entries
System Name: T1, Human BSSL (bile salt-stimulated lipase), native (human, UniProt P19835 21-753)
T1 construct: Native full-length protein purified from human milk (Astra Hässle AB); also called hBSSL; non-biotinylated human BSSL
T1 sequence: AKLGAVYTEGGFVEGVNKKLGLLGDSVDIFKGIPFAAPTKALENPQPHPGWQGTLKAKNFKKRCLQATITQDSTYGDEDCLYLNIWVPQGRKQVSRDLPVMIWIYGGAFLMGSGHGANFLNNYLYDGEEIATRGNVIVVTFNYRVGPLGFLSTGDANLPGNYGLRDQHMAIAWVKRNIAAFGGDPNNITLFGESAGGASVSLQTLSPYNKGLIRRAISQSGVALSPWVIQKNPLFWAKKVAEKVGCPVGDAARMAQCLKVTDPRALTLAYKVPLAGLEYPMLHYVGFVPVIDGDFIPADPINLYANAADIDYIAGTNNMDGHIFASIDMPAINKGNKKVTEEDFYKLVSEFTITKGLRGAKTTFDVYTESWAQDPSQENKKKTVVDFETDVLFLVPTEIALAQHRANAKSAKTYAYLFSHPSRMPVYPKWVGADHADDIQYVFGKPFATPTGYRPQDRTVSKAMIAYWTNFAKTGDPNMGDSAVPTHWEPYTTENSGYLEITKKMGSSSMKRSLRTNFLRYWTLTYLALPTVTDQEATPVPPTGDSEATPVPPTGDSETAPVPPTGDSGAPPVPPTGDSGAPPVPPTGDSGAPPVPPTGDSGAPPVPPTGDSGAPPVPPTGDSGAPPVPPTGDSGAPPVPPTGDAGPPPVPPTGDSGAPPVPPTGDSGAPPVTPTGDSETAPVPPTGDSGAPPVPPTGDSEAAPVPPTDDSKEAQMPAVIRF
Protocol: SPR single cycle kinetics, captured by anti-Fab, Absolute Antibody batch
Method: Kinetic parameters of the hIgG4 S228P clones were determined by SPR using BIACORE® T200 (GE Healthcare). An anti-Fab antibody (GE #28958325) was immobilized on a CM5 S sensor chip by primary amine coupling using NHS-EDC chemistry. The hIgG4 antibodies were captured by the anti-Fab antibody, and subsequently, five different concentrations of hBSSL (1:5 dilutions, 0.08-50 nM) or mBSSL (1:2 dilutions, 50-800 nM) were injected over the surface. […]
For clarity, pKd is expressed as the negative log10 of concentration in mol/L.

1) S-SL048-106 hIgG4 S228P (antibody, V domains shown, also called mAb106) VH: QVQLVQSGAEVKKPGASVKVSCKASGYTFTSYNMHWVRQAPGQGLEWIGVIYPGDGSTSYNQKFQGRVTMTRDTSTSTVYMELSSLRSEDTAVYYCARDYYGSSPLGYWGQGTLVTVSS VL: DIQMTQSPSSLSASVGDRVTITCSASSSISYMNWYQQKPGKAPKLLIYATSKLPSGVPSRFSGSGSGTDFTLTISSLQPEDFATYYCHQRSSTPTFGQGTKLEIKR    8.92
2) S-SL048-118 hIgG4 S228P (antibody, V domains shown, also called clone 118; mAb118) VH: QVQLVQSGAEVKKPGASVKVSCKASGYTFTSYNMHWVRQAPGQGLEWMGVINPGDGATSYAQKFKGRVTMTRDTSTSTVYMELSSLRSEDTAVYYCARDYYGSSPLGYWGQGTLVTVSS VL: DIQMTQSPSSLSASVGDRVTITCSASPSISYMNWYQQKPGKAPKLLIYATSSLPSGVPSRFSGSGSGTDFTLTISSLQPEDFATYYCHQRSSSPTFGQGTKLEIKR    9.30
3) S-SL048-11 hIgG4 S228P (antibody, V domains shown, also called clone 11; mAb11) VH: QVQLVQSGAEVKKPGASVKVSCKASGYTFTSYNMHWVRQAPGQGLEWMGVIYPGDGATSYAQKFKGRVTMTRDTSTSTVYMELSSLRSEDTAVYYCARDYYGSSPLGYWGQGTLVTVSS VL: DIQMTQSPSSLSASVGDRVTITCSASPSISYMNWYQQKPGKAPKLLIYATSSLASGVPSRFSGSGSGTDFTLTISSLQPEDFATYYCHQRSSYPTFGQGTKLEIKR    9.22
4) S-SL048-46 hIgG4 S228P (antibody, V domains shown, also called clone 46; mAb46) VH: QVQLVQSGAEVKKPGASVKVSCKASGYTFTSYNMHWVRQAPGQGLEWMGVINPGDGATSYNQKFQGRVTMTRDTSTSTVYMELSSLRSEDTAVYYCARDYYGSSPLGYWGQGTLVTVSS VL: DIQMTQSPSSLSASVGDRVTITCRASSSISYLNWYQQKPGKAPKLLIYAASSLASGVPSRFSGSGSGTDFTLTISSLQPEDFATYYCHQRSSSPTFGQGTKLEIKR    8.42

# ---- query binder ----
Q. So what's the measured pKd for this one? S-SL048-116 hIgG4 S228P (antibody, V domains shown, also called mAb116) VH: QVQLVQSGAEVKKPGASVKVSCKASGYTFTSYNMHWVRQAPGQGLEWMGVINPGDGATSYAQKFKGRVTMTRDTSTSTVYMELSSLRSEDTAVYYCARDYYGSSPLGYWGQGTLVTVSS VL: DIQMTQSPSSLSASVGDRVTITCRASPSISYMNWYQQKPGKAPKLLIYATSSLASGVPSRFSGSGSGTDFTLTISSLQPEDFATYYCHQRSSSPTFGQGTKLEIKR
A. 9.30
